biological target: recombinant human Wee1A kinase (Homo sapiens, UniProt P30291); construct: full length Wee1 kinase was expressed by baculovirus in insect cells; purchased Invitrogen PV3817; host or cells: insect cells (baculovirus); assay: Wee1A kinase binding assay (LanthaScreen Eu time-resolved FRET); details: 30 nM tracer 178, 5 nM Wee1A kinase, 2 nM Eu-labeled antibody; 60 minutes at room temperature; read-out: Wee1A kinase Binding IC50
Sequence (P30291 whole entry): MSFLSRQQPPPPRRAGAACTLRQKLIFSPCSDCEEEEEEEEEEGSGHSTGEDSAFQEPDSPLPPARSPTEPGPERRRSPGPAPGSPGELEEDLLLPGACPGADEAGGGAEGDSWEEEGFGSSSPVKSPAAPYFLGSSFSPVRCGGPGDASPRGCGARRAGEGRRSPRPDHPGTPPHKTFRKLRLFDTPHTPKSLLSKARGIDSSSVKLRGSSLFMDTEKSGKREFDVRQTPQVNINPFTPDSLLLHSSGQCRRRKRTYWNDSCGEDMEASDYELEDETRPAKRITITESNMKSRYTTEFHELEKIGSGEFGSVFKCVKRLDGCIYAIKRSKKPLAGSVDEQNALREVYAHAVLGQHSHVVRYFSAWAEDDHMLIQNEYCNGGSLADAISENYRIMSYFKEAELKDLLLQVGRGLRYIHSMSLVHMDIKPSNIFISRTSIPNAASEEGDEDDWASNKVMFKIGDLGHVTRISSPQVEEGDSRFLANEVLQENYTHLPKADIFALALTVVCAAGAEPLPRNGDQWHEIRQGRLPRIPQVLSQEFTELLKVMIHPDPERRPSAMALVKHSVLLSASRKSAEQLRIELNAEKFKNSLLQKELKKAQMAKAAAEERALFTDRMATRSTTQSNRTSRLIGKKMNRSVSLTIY
pIC50: −log10 of the molar value.
Parameter: pIC50. Scope: all listed entries.

Take a look at these entries with their results.
{"compound": "C=CCn1c(=O)c2cnc(Nc3ccc(F)cc3)nc2n1-c1ccnc(OC2CCN(C)CC2)n1", "pIC50": "> 8.00"}
{"compound": "C=CCn1c(=O)c2cnc(Nc3ccc4c(cnn4C)c3)nc2n1-c1cccc(N[C@H]2CCN(C)C2)n1", "pIC50": "> 8.00"}
{"compound": "C=CCn1c(=O)c2cnc(Nc3ccc4c(cnn4C(C)C)c3)nc2n1-c1ccnc(OC2CCNCC2)n1", "pIC50": "> 8.00"}
{"compound": "C=CCn1c(=O)c2cnc(Nc3ccc(F)cc3)nc2n1-c1cccc(OC2CCCN(C)CC2)n1 (single isomer, unassigned) [Compound 351]", "pIC50": "> 8.00"}

Query string: Consider the compound shown here: C=CCn1c(=O)c2cnc(Nc3ccc(OCCF)cc3)nc2n1-c1cccc(OC2CCN(C)CC2)n1 What is its recorded pIC50?
Result string: > 8.00

Query string: Item C=CCn1c(=O)c2cnc(Nc3ccc(Cl)cc3)nc2n1-c1cccc(OC2CCCNC2)n1 (stereo in doubt) has what recorded pIC50?
Result string: > 8.00

Query string: Any idea what its pIC50 is? The compound is C=CCn1c(=O)c2cnc(Nc3ccc4ncsc4c3)nc2n1-c1cccc(OC2CCN(C)CC2)n1
Result string: > 8.00

---

# pEC50 per entry
target: Wee1A kinase (CDK1 Tyr15 phosphorylation in ACHN renal cell carcinoma cells) (Homo sapiens); construct: pCDK1 Tyr15 immunofluorescence read-out; assay: High-content imaging of pCdk1 Y15, Wee1A kinase target engagement in ACHN cells; format: cell-based; conditions: 4 h treatment, nuclear positivity for pCdk1 Y15 vs DMSO control, read-out: CDK1 Tyr15 Phosphorylation EC50
pEC50: −log10 of the molar value.

Please review the following examples before continuing.
{"item-smiles": "CCn1c(=O)c2cnc(Nc3cccc(-c4cnn(C)c4)c3)nc2n1-c1cccc(OC2CCNCC2)n1", "reported-measurement": "< 6.00"}
{"item-smiles": "C=CCn1c(=O)c2cnc(Nc3ccc(Br)cc3)nc2n1-c1cccc(OC2CCN(C)CC2)n1", "reported-measurement": "> 7.00"}
{"item-smiles": "C=CCn1c(=O)c2cnc(Nc3ccc4c(cnn4C)c3)nc2n1-c1cccc(N[C@@H]2CCNC2)n1", "reported-measurement": "< 6.00"}

From here, focus on the item given below.
Query string: Could you share which pEC50 value was measured for C=CCn1c(=O)c2cnc(Nc3ccc4c(cnn4C(C)C)c3)nc2n1-c1ccnc(OC2CCN(C)CC2)n1 ?
Result string: > 7.00

---

tested on: A427 cells; assay: Cell Titer Glo viability assay, A427 cells; type: cell-based; details: Homo sapiens, A-427, 144 h, absolute EC50
readout: EC50

{"item-smiles": "C=CCn1c(=O)c2cnc(Nc3ccc4c(cnn4C)c3)nc2n1-c1cccc(OC2CCN(C)CC2)n1", "assay-system": "A427 cells", "readout": "EC50", "reported-measurement": "≤ 100 nM"}
{"item-smiles": "CCn1c(=O)c2cnc(Nc3ccc4c(cnn4C)c3)nc2n1-c1cccc(OC2CCN(C)CC2)n1", "assay-system": "A427 cells", "readout": "EC50", "reported-measurement": "100 to 500 nM"}
{"item-smiles": "C=CCn1c(=O)c2cnc(Nc3ccc(OCCF)cc3)nc2n1-c1cccc(OC2CCN(C)CC2)n1", "assay-system": "A427 cells", "readout": "EC50", "reported-measurement": "≤ 100 nM"}

Next up:
Query string: I'd like to know its EC50. The compound in question is C=CCn1c(=O)c2cnc(Nc3ccc(Cl)cc3)nc2n1-c1cccc(OC2CCN(C)CC2)n1
Result string: 100 to 500 nM

---

molecular target: Myt1 kinase (recombinant PMYT-1) (Homo sapiens, UniProt Q99640); construct: full length PMYT-1 was expressed by baculovirus in insect cells; purchased Invitrogen A30984; host or cells: insect cells (baculovirus); assay: Myt1 kinase binding assay (LanthaScreen Eu Kinase Binding Assay); settings: 3 nM tracer 178, 2.5 nM PMYT-1, 1 nM Eu-labeled antibody; read-out: Myt1 kinase Binding IC50
pIC50: −log10 of the molar value.
readout: pIC50

{"compound": "C=CCn1c(=O)c2cnc(Nc3ccc4c(c3)ncn4C)nc2n1-c1cccc(OC2CCN(C)CC2)n1 [Compound 211]", "assay-system": "Myt1 kinase (recombinant PMYT-1) (Homo sapiens, UniProt Q99640)", "reported-measurement": "7.00 to 7.70"}

Query string: Which value of pIC50 has been reported for C=CCn1c(=O)c2cnc(Nc3ccc(Cl)cc3)nc2n1-c1cccc(O[C@@H]2CCCN(C)C2)n1 [Compound 187] in the records?
Result string: 6.30 to 7.00

Query string: // lookup pIC50 for C=CCn1c(=O)c2cnc(Nc3ccc(OCC(F)(F)F)cc3)nc2n1-c1ccnc(NC2CCN(C)CC2)n1 [Compound 314]
Result string: 7.00 to 7.70

Query string: Returns the measured pIC50 for the input compound. Input: C=CCn1c(=O)c2cnc(Nc3cnc4c(cnn4C(C)C)c3)nc2n1-c1cccc(OC2CCN(C)CC2)n1 [Compound 406]
Result string: > 7.70

---

target: Wee1A kinase (CDK1 Tyr15 phosphorylation in ACHN renal cell carcinoma cells) (Homo sapiens, UniProt P30291); construct: pCDK1 Tyr15 immunofluorescence read-out; experiment: High-content imaging of pCdk1 Y15, Wee1A kinase target engagement in ACHN cells; type: cell-based; details: 4 h treatment, nuclear positivity for pCdk1 Y15 vs DMSO control, read-out: CDK1 Tyr15 Phosphorylation EC50
pEC50: −log10 of the molar value.
Recorded measurements of pEC50, one per entry

Solved cases below.
{"compound": "C=CCn1c(=O)c2cnc(Nc3ccc(F)cc3)nc2n1-c1ccnc(OC2CCNCC2)n1", "pEC50": "6.30 to 7.00"}
{"compound": "C=CCn1c(=O)c2cnc(Nc3ccc4cnccc4c3)nc2n1-c1cccc(OC2CCNCC2)n1", "pEC50": "> 7.00"}

Query string: What does the record list as pEC50 for CCn1c(=O)c2cnc(Nc3cccc(C)c3)nc2n1-c1cccc(OC2CCN(C)CC2)n1 ?
Result string: > 7.00

Query string: What value of measured pEC50 is listed for C=CCn1c(=O)c2cnc(Nc3ccc(OCCCF)cc3)nc2n1-c1cccc(OC2CCNCC2)n1 ?
Result string: > 7.00

Query string: What value of pEC50 has been reported for the following compound? CCn1c(=O)c2cnc(Nc3ccc4c(cnn4C)c3)nc2n1-c1cccc(OC2CCN(C)CC2)n1
Result string: > 7.00

---

Target: Myt1 kinase (recombinant PMYT-1) (Homo sapiens)
Construct: full length PMYT-1 was expressed by baculovirus in insect cells; purchased Invitrogen A30984; host or cells: insect cells (baculovirus)
Sequence (Q99640 1-499): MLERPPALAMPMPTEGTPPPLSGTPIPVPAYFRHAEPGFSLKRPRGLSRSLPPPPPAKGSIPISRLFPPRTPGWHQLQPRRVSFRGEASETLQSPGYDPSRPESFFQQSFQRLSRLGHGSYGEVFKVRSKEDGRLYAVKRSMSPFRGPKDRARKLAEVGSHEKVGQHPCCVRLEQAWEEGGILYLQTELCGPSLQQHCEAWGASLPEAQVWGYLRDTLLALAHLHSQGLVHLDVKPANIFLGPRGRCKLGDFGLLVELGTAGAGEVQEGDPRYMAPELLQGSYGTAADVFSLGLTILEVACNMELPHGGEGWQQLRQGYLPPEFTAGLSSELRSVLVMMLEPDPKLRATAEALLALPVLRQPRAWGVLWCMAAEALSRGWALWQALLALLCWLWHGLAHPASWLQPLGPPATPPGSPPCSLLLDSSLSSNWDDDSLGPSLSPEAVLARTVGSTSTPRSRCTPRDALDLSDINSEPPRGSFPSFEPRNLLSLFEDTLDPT
Experiment: Myt1 kinase binding assay (LanthaScreen Eu Kinase Binding Assay)
Conditions: 3 nM tracer 178, 2.5 nM PMYT-1, 1 nM Eu-labeled antibody; read-out: Myt1 kinase Binding IC50
Examples of compounds with documented IC50 follow.

{"compound": "C=CCn1c(=O)c2cnc(Nc3ccc4c(cnn4C)c3)nc2n1-c1cccc(OC2CCN(C)CC2)n1", "IC50": "< 20 nM"}
{"compound": "C=CCn1c(=O)c2cnc(Nc3ccc4c(cnn4C)c3)nc2n1-c1cccc(OC2CCCN(C)CC2)n1 (single isomer, unassigned) [Compound 374]", "IC50": "20 to 100 nM"}

Query string: Consider the compound shown here: C=CCn1c(=O)c2cnc(Nc3ccc4c(cnn4C)c3)nc2n1-c1cccc(O[C@H]2CCN(C)C2)n1 What is its recorded IC50?
Result string: 20 to 100 nM
